System: Fibroblast
procedureDetails: Multiplex assay against human fibroblast
Format: toxicity, cell-based
measurementParameters: 48 h, 10 µM, compound concentration 10 uM, replicate 2
Known Population Membrane Permeable-Phenotype (%) of a selection of molecules
Give the number; % is assumed, so skip it.

Reference set, count: 5
[
  {
    "molecule": "CCOc1c2c(c(OCC)c3ncccc13)CN(c1ccc(CS(=O)(=O)NC(=O)Cc3ccccc3OC)cc1C)C2=O",
    "unitsSymbol": "%",
    "number": 7
  },
  {
    "molecule": "COc1ccc2c(c1)C(C(=O)N(Cc1ccc(N(C)C)cc1)c1ccc(C(C)C)cc1)CCC2.Cl (configuration not stated)",
    "unitsSymbol": "%",
    "number": 3
  },
  {
    "molecule": "O=C(NCCO)c1cccc(-c2cc(Nc3ccc(OC(F)(F)F)cc3)ncn2)c1",
    "unitsSymbol": "%",
    "number": 13
  },
  {
    "molecule": "C[C@@H]1C[C@H]2[C@@H]3CCC4=CC(=O)C=C[C@]4(C)[C@@]3(F)[C@@H](O)C[C@]2(C)[C@@]1(O)C(=O)CO",
    "unitsSymbol": "%",
    "number": 10
  },
  {
    "molecule": "N#Cc1c(N)nc(SCc2csc(-c3ccc(Cl)cc3)n2)c(C#N)c1-c1ccc(OCCO)cc1",
    "unitsSymbol": "%",
    "number": 11
  }
]

Entry CCNC1(C(N)=O)CCN(c2ncnc3c2nc(-c2ccccc2Cl)n3-c2ccc(Cl)cc2)CC1 ; Population Membrane Permeable-Phenotype (%) = 7

The reported Population Membrane Permeable-Phenotype (%) of the molecule COc1cc(NC(=O)CCN2CCC(OC(=O)Nc3ccccc3-c3ccccc3)CC2)c(Cl)cc1CNC[C@H](O)c1ccc(O)c2[nH]c(=O)ccc12 was 1

For reference, reported Population Membrane Permeable-Phenotype (%) for CN1CCN(c2nc3cc(C(F)(F)F)ccc3n3cccc23)CC1.O=C(O)/C=C\C(=O)O.O=C(O)/C=C\C(=O)O stands at 1

Recorded Population Membrane Permeable-Phenotype (%) (molecule Cc1ccc(C(C)(O)c2nc3ccccc3s2)c(C)c1 (configuration not stated) ): 7

###

System: U2OS
procedureDetails: Multiplex assay against U2OS
Type: toxicity, cell-based
measurementParameters: human, 24 h, 10 µM, compound concentration 10 uM, replicate 2
Binning of Population Pyknosed Nuclei (%) into classes: class 0 = under 7%, class 1 = from 7% up to 10%, class 2 = 10% and over

Example entries begin here.
[
  {
    "molecule": "C[C@H](NC(=O)c1c(C(F)F)nn(C)c1Oc1cccc(C(F)(F)F)c1)c1ccc(C(=O)O)cc1",
    "categoryLabel": "class 1"
  },
  {
    "molecule": "CC(C)(C)c1ccc(S(=O)(=O)Nc2ccc(Cl)cc2C(=O)c2cc[n+]([O-])cc2)cc1",
    "categoryLabel": "class 0"
  },
  {
    "molecule": "CN1CCN(c2nc3cc(C(F)(F)F)ccc3n3cccc23)CC1.O=C(O)/C=C\\C(=O)O.O=C(O)/C=C\\C(=O)O",
    "categoryLabel": "class 1"
  },
  {
    "molecule": "O=S(=O)(c1ccccc1)c1cnc2c(N3CCNCC3)cccc2c1 [INTEPIRDINE]",
    "categoryLabel": "class 2"
  },
  {
    "molecule": "Cc1nc2ccc(Oc3ccc(F)cc3)cc2c(=O)n1C[C@H]1CCCN(C(C)C)C1.Cl",
    "categoryLabel": "class 2"
  }
]

**Query** For this molecule, which bin applies? COc1ccc2c(c1)C(C(=O)N(Cc1ccc(N(C)C)cc1)c1ccc(C(C)C)cc1)CCC2.Cl (centres undefined)
**Result** class 2

**Query** Determine which band this molecule sits in: Oc1c(CN2CCN(c3ccccn3)CC2)cc(Cl)c2cccnc12
**Result** class 2

**Query** Class for CCOc1c2c(c(OCC)c3ncccc13)CN(c1ccc(CS(=O)(=O)NC(=O)Cc3ccccc3OC)cc1C)C2=O ?
**Result** class 0
